B1: library; numbered along this chain (parent)
chain: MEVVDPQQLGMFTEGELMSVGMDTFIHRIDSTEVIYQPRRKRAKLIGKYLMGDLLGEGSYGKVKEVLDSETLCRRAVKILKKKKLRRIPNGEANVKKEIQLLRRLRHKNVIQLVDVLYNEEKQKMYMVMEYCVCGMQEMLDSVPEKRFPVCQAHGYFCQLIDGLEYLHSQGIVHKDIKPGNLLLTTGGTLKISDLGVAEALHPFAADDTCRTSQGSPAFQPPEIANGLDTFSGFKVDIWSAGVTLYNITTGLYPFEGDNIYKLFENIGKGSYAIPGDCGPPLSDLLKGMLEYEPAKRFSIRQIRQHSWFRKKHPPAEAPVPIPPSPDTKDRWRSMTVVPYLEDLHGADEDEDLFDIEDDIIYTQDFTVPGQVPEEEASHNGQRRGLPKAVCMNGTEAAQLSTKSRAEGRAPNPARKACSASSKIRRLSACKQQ

# Variants of: B1
# protocol_details: STK11 functional score (HeLa growth suppression), rescaled enrichment; synonymous median = 1, nonsense median = 0 (normalised score)
# study_conditions: with HeLa; variant type: missense
Parameter: STK11 functional score. Scope: all listed entries.
The response must contain the number and no unit.

- mutation_spec: "S334H"
  numeric_readout: 1.05
- mutation_spec: "P339R"
  numeric_readout: 1.16
- mutation_spec: "M335T"
  numeric_readout: 1.46
- mutation_spec: "H27I"
  numeric_readout: 0.637
- mutation_spec: "G15F"
  numeric_readout: 1.05

Record request: STK11 functional score value, item T250V
1.24

Record request: STK11 functional score value, item V372M
0.74

Record request: STK11 functional score value, item G61E
0.195

Record request: STK11 functional score value, item I46T
1.24

Record request: STK11 functional score value, item T185C
1.13

Record request: STK11 functional score value, item I260F
0.763

Record request: STK11 functional score value, item P38K
1.6
